Catalogue of pKd readings, one per entry.
Assayed Target: HLA-A*03:01
Assay Info: IEDB peptide-MHC binding, purified MHC/direct/fluorescence; filed as Kd, often an IC50 or EC50 that approximates it; bounds were set here for any values at or beyond the usual limits of such assays
Measurement Parameters: source organism: SARS-CoV1
pKd: −log10 of the molar value.

Sequence Code	Assayed Target	pKd
AVDPAKAYK	HLA-A*03:01	5.78
KCYGVSATK	HLA-A*03:01	5.68
KVIQPRVEK	HLA-A*03:01	6.23
QLFKPLTKK	HLA-A*03:01	6.67
GTLSYDNLK	HLA-A*03:01	6.44
VTFQGKFKK	HLA-A*03:01	6.49
ALRANSAVK	HLA-A*03:01	6.71
ATVVIGTSK	HLA-A*03:01	6.63
AVLQSGFRK	HLA-A*03:01	6.59
ITCVVIPSK	HLA-A*03:01	5.73
SSSLTSLLK	HLA-A*03:01	6.56
ATNNVFRLK	HLA-A*03:01	6.40
ASLPTTIAK	HLA-A*03:01	7.25
GVAMPNLYK	HLA-A*03:01	7.22
RLYYDSMSY	HLA-A*03:01	7.28
AITTSNCAK	HLA-A*03:01	6.19
LIGANYLGK	HLA-A*03:01	6.00
VVYRGTTTY	HLA-A*03:01	7.38
ATFSVPMEK	HLA-A*03:01	6.58
SSNVANYQK	HLA-A*03:01	6.35
YIFFASFYY	HLA-A*03:01	5.93
KMQRMLLEK	HLA-A*03:01	6.52

* * *

Catalogue of pKd readings, one per entry.
Assayed Target: HLA-A*11:01
Assay Info: IEDB peptide-MHC binding, purified MHC/direct/fluorescence; filed as Kd, often an IC50 or EC50 that approximates it; bounds were set here for any values at or beyond the usual limits of such assays
Measurement Parameters: source organism: SARS-CoV1
pKd: −log10 of the molar value.
Measured Parameter: pKd

Sequence Code	Assayed Target	Result Value
ALRANSAVK	HLA-A*11:01	5.75
AVDPAKAYK	HLA-A*11:01	6.91
QLFKPLTKK	HLA-A*11:01	6.63
ASLPTTIAK	HLA-A*11:01	7.72
ATNNVFRLK	HLA-A*11:01	6.63
YIFFASFYY	HLA-A*11:01	6.46
ATFSVPMEK	HLA-A*11:01	7.55
KMQRMLLEK	HLA-A*11:01	6.47
VTFQGKFKK	HLA-A*11:01	7.04
ITCVVIPSK	HLA-A*11:01	6.54
KLFAAETLK	HLA-A*11:01	6.63
LIGANYLGK	HLA-A*11:01	5.83
KVIQPRVEK	HLA-A*11:01	6.77
RLYYDSMSY	HLA-A*11:01	6.63
AITTSNCAK	HLA-A*11:01	7.27
KCYGVSATK	HLA-A*11:01	5.08
AVLQSGFRK	HLA-A*11:01	7.10
SSNVANYQK	HLA-A*11:01	7.64
ATVVIGTSK	HLA-A*11:01	7.52
GTLSYDNLK	HLA-A*11:01	7.32
SSSLTSLLK	HLA-A*11:01	7.29
GVAMPNLYK	HLA-A*11:01	7.14
VVYRGTTTY	HLA-A*11:01	6.93
